test system: HaCaT; assay: Cytotoxicity against human HaCaT cells incubated for 48 hrs by MTT assay; type: toxicity, cell-based; conditions: dose < 250 µg/ml
Where a SMILES comes first, the peptide text is derived from it.
METRIC NAME: Activity

[[record]]
compound = "CC[C@H](C)[C@H](NC(=O)[C@H](CCCCN)NC(=O)[C@H](CCCNC(=N)N)NC(=O)[C@H](CC(C)C)NC(=O)[C@H](CC(C)C)NC(=O)[C@H](CCCCN)NC(=O)[C@H](CCCCN)NC(=O)[C@H](Cc1ccccc1)NC(=O)[C@H](CC(C)C)NC(=O)CNC(=O)[C@@H](N)CCCNC(=N)N)C(=O)N[C@@H](CCCCN)C(=O)N[C@@H](CCCCN)C(=O)NCC(=O)N[C@@H](Cc1ccccc1)C(=O)N[C@@H](CCCCN)C(=O)N[C@@H](CCCCN)C(=O)O (H-RGLFKKLLRKIKKGFKK-OH)"
metric_name = "Activity"
result = "Dose-Dependent Effect"

[[record]]
compound = "CC[C@H](C)[C@H](NC(=O)[C@H](CC(C)C)NC(=O)[C@H](CCCNC(=N)N)NC(=O)[C@H](CC(C)C)NC(=O)[C@H](CC(C)C)NC(=O)[C@H](CCCCN)NC(=O)[C@H](CCCCN)NC(=O)[C@H](Cc1ccccc1)NC(=O)[C@H](CC(C)C)NC(=O)CNC(=O)[C@@H](N)CC(C)C)C(=O)N[C@@H](CC(C)C)C(=O)N[C@@H](CCCCN)C(=O)NCC(=O)N[C@@H](Cc1ccccc1)C(=O)N[C@@H](CCCCN)C(=O)N[C@@H](CC(C)C)C(=O)O (H-LGLFKKLLRLILKGFKL-OH)"
metric_name = "Activity"
result = "Dose-Dependent Effect"

[[record]]
compound = "CC[C@H](C)[C@H](NC(=O)[C@H](C)NC(=O)[C@H](CCCNC(=N)N)NC(=O)[C@H](C)NC(=O)[C@H](CC(C)C)NC(=O)[C@H](CCCCN)NC(=O)[C@H](CCCCN)NC(=O)[C@H](Cc1ccccc1)NC(=O)[C@H](CC(C)C)NC(=O)CNC(=O)[C@H](C)N)C(=O)N[C@@H](CCCCN)C(=O)N[C@@H](CCCCN)C(=O)NCC(=O)N[C@@H](Cc1ccccc1)C(=O)N[C@@H](CCCCN)C(=O)N[C@@H](CCCCN)C(=O)O (H-AGLFKKLARAIKKGFKK-OH)"
metric_name = "Activity"
result = "Dose-Dependent Effect"


====

test system: Peritoneal macrophage; test: Cytotoxicity against mouse peritoneal macrophage cells incubated for 48 hrs by MTT assay; assay type: toxicity, cell-based; details: dose < 250 µg/ml
Where a SMILES comes first, the peptide text is derived from it.
METRIC NAME: Activity

[[record]]
compound = "CC[C@H](C)[C@H](NC(=O)[C@H](CCCCN)NC(=O)[C@H](CCCNC(=N)N)NC(=O)[C@H](CC(C)C)NC(=O)[C@H](CC(C)C)NC(=O)[C@H](CCCCN)NC(=O)[C@H](CCCCN)NC(=O)[C@H](Cc1ccccc1)NC(=O)[C@H](CC(C)C)NC(=O)CNC(=O)[C@@H](N)CCCNC(=N)N)C(=O)N[C@@H](CCCCN)C(=O)N[C@@H](CCCCN)C(=O)NCC(=O)N[C@@H](Cc1ccccc1)C(=O)N[C@@H](CCCCN)C(=O)N[C@@H](CCCCN)C(=O)O (H-RGLFKKLLRKIKKGFKK-OH)"
result = "Dose-Dependent Effect"

[[record]]
compound = "CC[C@H](C)[C@H](NC(=O)[C@H](CC(C)C)NC(=O)[C@H](CCCNC(=N)N)NC(=O)[C@H](CC(C)C)NC(=O)[C@H](CC(C)C)NC(=O)[C@H](CCCCN)NC(=O)[C@H](CCCCN)NC(=O)[C@H](Cc1ccccc1)NC(=O)[C@H](CC(C)C)NC(=O)CNC(=O)[C@@H](N)CC(C)C)C(=O)N[C@@H](CC(C)C)C(=O)N[C@@H](CCCCN)C(=O)NCC(=O)N[C@@H](Cc1ccccc1)C(=O)N[C@@H](CCCCN)C(=O)N[C@@H](CC(C)C)C(=O)O (H-LGLFKKLLRLILKGFKL-OH)"
result = "Dose-Dependent Effect"


====

system: Cell membrane; test: Induction of inner membrane permeabilization in Vibrio parahaemolyticus ATCC17802 assessed as increase in PI fluorescence intensity at 5 times MIC by propidium iodide penetration assay; assay type: cell membranes; details: time <= 200.0 min
The source made the active and inactive calls. No cut-off for these calls is given here. Where a SMILES comes first, the peptide text is derived from it.
METRIC NAME: Activity

Check out these entries, answers already filled in.
[[record]]
compound = "CC[C@H](C)[C@H](NC(=O)[C@H](CC(C)C)NC(=O)[C@H](CCCNC(=N)N)NC(=O)[C@H](CC(C)C)NC(=O)[C@H](CC(C)C)NC(=O)[C@H](CCCCN)NC(=O)[C@H](CCCCN)NC(=O)[C@H](Cc1ccccc1)NC(=O)[C@H](CC(C)C)NC(=O)CNC(=O)[C@@H](N)CCCNC(=N)N)C(=O)N[C@@H](CCCCN)C(=O)N[C@@H](CCCCN)C(=O)NCC(=O)N[C@@H](Cc1ccccc1)C(=O)N[C@@H](CCCCN)C(=O)N[C@@H](CCCCN)C(=O)O (H-RGLFKKLLRLIKKGFKK-OH)"
metric_name = "Activity"
result = "Active"

[[record]]
compound = "CC[C@H](C)[C@H](NC(=O)[C@H](CC(C)C)NC(=O)[C@H](CCCNC(=N)N)NC(=O)[C@H](CC(C)C)NC(=O)[C@H](CC(C)C)NC(=O)[C@H](CCCCN)NC(=O)[C@H](CCCCN)NC(=O)[C@H](Cc1ccccc1)NC(=O)[C@H](CC(C)C)NC(=O)CNC(=O)[C@@H](N)CC(C)C)C(=O)N[C@@H](CCCCN)C(=O)N[C@@H](CCCCN)C(=O)NCC(=O)N[C@@H](Cc1ccccc1)C(=O)N[C@@H](CCCCN)C(=O)N[C@@H](CCCCN)C(=O)O (H-LGLFKKLLRLIKKGFKK-OH)"
metric_name = "Activity"
result = "Active"

[[record]]
compound = "CC[C@H](C)[C@H](NC(=O)[C@H](CCCCN)NC(=O)[C@H](CCCNC(=N)N)NC(=O)[C@H](CC(C)C)NC(=O)[C@H](CC(C)C)NC(=O)[C@H](CCCCN)NC(=O)[C@H](CCCCN)NC(=O)[C@H](Cc1ccccc1)NC(=O)[C@H](CC(C)C)NC(=O)CNC(=O)[C@@H](N)CCCNC(=N)N)C(=O)N[C@@H](CCCCN)C(=O)N[C@@H](CCCCN)C(=O)NCC(=O)N[C@@H](Cc1ccccc1)C(=O)N[C@@H](CCCCN)C(=O)N[C@@H](CCCCN)C(=O)O (H-RGLFKKLLRKIKKGFKK-OH)"
metric_name = "Activity"
result = "Active"

[[record]]
compound = "CC[C@H](C)[C@H](NC(=O)[C@H](CCCCN)NC(=O)[C@H](CCCNC(=N)N)NC(=O)[C@H](C)NC(=O)[C@H](CC(C)C)NC(=O)[C@H](CCCCN)NC(=O)[C@H](CCCCN)NC(=O)[C@H](Cc1ccccc1)NC(=O)[C@H](CC(C)C)NC(=O)CNC(=O)[C@@H](N)CCCNC(=N)N)C(=O)N[C@@H](CCCCN)C(=O)N[C@@H](CCCCN)C(=O)NCC(=O)N[C@@H](Cc1ccccc1)C(=O)N[C@@H](CCCCN)C(=O)N[C@@H](CCCCN)C(=O)O (H-RGLFKKLARKIKKGFKK-OH)"
metric_name = "Activity"
result = "Active"

[[record]]
compound = "CC[C@H](C)[C@H](NC(=O)[C@H](C)NC(=O)[C@H](CCCNC(=N)N)NC(=O)[C@H](C)NC(=O)[C@H](CC(C)C)NC(=O)[C@H](CCCCN)NC(=O)[C@H](CCCCN)NC(=O)[C@H](Cc1ccccc1)NC(=O)[C@H](CC(C)C)NC(=O)CNC(=O)[C@@H](N)CCCNC(=N)N)C(=O)N[C@@H](CCCCN)C(=O)N[C@@H](CCCCN)C(=O)NCC(=O)N[C@@H](Cc1ccccc1)C(=O)N[C@@H](CCCCN)C(=O)N[C@@H](CCCCN)C(=O)O (H-RGLFKKLARAIKKGFKK-OH)"
metric_name = "Activity"
result = "Active"


Provide the reported Activity of each entry below, same order.
1. CC[C@H](C)[C@H](NC(=O)[C@H](C)NC(=O)[C@H](CCCNC(=N)N)NC(=O)[C@H](C)NC(=O)[C@H](CC(C)C)NC(=O)[C@H](CCCCN)NC(=O)[C@H](CCCCN)NC(=O)[C@H](Cc1ccccc1)NC(=O)[C@H](CC(C)C)NC(=O)CNC(=O)[C@H](C)N)C(=O)N[C@@H](CCCCN)C(=O)N[C@@H](CCCCN)C(=O)NCC(=O)N[C@@H](Cc1ccccc1)C(=O)N[C@@H](CCCCN)C(=O)N[C@@H](CC(C)C)C(=O)O (H-AGLFKKLARAIKKGFKL-OH)
2. CC[C@H](C)[C@H](NC(=O)[C@H](CC(C)C)NC(=O)[C@H](CCCNC(=N)N)NC(=O)[C@H](CC(C)C)NC(=O)[C@H](CC(C)C)NC(=O)[C@H](CCCCN)NC(=O)[C@H](CCCCN)NC(=O)[C@H](Cc1ccccc1)NC(=O)[C@H](CC(C)C)NC(=O)CNC(=O)[C@@H](N)CC(C)C)C(=O)N[C@@H](CCCCN)C(=O)N[C@@H](CCCCN)C(=O)NCC(=O)N[C@@H](Cc1ccccc1)C(=O)N[C@@H](CCCCN)C(=O)N[C@@H](CC(C)C)C(=O)O (H-LGLFKKLLRLIKKGFKL-OH)
3. CC[C@H](C)[C@H](NC(=O)[C@H](CC(C)C)NC(=O)[C@H](CCCNC(=N)N)NC(=O)[C@H](CC(C)C)NC(=O)[C@H](CC(C)C)NC(=O)[C@H](CCCCN)NC(=O)[C@H](CCCCN)NC(=O)[C@H](Cc1ccccc1)NC(=O)[C@H](CC(C)C)NC(=O)CNC(=O)[C@@H](N)CC(C)C)C(=O)N[C@@H](CC(C)C)C(=O)N[C@@H](CCCCN)C(=O)NCC(=O)N[C@@H](Cc1ccccc1)C(=O)N[C@@H](CCCCN)C(=O)N[C@@H](CC(C)C)C(=O)O (H-LGLFKKLLRLILKGFKL-OH)

Result ::
1. Active
2. Active
3. Active

Query :: Retrieve Activity measured for CC[C@H](C)[C@H](NC(=O)[C@H](C)NC(=O)[C@H](CCCNC(=N)N)NC(=O)[C@H](C)NC(=O)[C@H](CC(C)C)NC(=O)[C@H](CCCCN)NC(=O)[C@H](CCCCN)NC(=O)[C@H](Cc1ccccc1)NC(=O)[C@H](CC(C)C)NC(=O)CNC(=O)[C@H](C)N)C(=O)N[C@@H](CCCCN)C(=O)N[C@@H](CCCCN)C(=O)NCC(=O)N[C@@H](Cc1ccccc1)C(=O)N[C@@H](CCCCN)C(=O)N[C@@H](CCCCN)C(=O)O (H-AGLFKKLARAIKKGFKK-OH) and print it.
Result :: Active
